Recorded values, source patent US20240132473A1.

# System tested: IRAK4 kinase (Homo sapiens (Human), UniProt Q9NWZ3)
# Sequence (Q9NWZ3 whole entry): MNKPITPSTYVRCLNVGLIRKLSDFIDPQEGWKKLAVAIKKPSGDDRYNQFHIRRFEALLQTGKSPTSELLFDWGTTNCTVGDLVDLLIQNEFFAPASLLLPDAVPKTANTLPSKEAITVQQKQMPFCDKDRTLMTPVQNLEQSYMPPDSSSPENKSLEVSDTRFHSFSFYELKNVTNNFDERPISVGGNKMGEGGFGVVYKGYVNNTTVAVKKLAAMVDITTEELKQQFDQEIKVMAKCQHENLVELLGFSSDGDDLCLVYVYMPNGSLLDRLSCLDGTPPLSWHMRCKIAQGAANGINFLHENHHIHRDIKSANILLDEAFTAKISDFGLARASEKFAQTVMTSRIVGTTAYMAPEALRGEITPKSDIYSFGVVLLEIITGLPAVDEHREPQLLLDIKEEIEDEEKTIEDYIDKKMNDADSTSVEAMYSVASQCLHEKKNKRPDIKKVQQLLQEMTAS
Values of IC50 strictly less than 600 pM map to t, and values of at least 600 pM map to f.

// known answers, use as guide
| Compound | Assigned class |
| --- | --- |
| N=S(=O)(CCn1cc2cc(NC(=O)c3cnn4cccnc34)c(N3CCC(O)C3)cc2n1)c1ccccn1 (stereo not drawn) | f |
| Cc1cc(-c2nc(C(=O)Nc3cc4cn(CCS(=N)(=O)c5ccncc5)nc4cc3N3CCC(O)C3)co2)ccn1 (stereo not drawn) | t |
| COc1cc2nn(CCS(=N)(=O)c3ccccc3)cc2cc1NC(=O)c1cccc(C(F)(F)F)n1 (stereo not drawn) | t |

Ask | Quick check: IC50 of COc1cc2nn(CCS(=N)(=O)c3ccncc3)cc2cc1NC(=O)c1coc(-c2ccnc(C)c2)n1 (stereo not drawn) under 600 pM?
Reply | f

Ask | Quick check: IC50 of COc1cc2nn(CCS(=N)(=O)c3nccs3)cc2cc1NC(=O)c1cccc(C(F)(F)F)n1 (stereo not drawn) under 600 pM?
Reply | f

Ask | Quick check: IC50 of COc1cc2nn(CCS(=N)(=O)c3ccc(F)cc3)cc2cc1NC(=O)c1cccc(C(F)(F)F)n1 (stereo not drawn) under 600 pM?
Reply | f

Ask | Quick check: IC50 of CC(C)(O)c1cc2nn(CCS(=N)(=O)c3ccccc3)cc2cc1NC(=O)c1cccc(C(F)(F)F)n1 (stereo not drawn) under 600 pM?
Reply | t

Ask | Quick check: IC50 of CC(C)(O)c1cc2nn(CCS(=N)(=O)c3ccccc3)cc2cc1NC(=O)c1cnn2cccnc12 (stereo not drawn) under 600 pM?
Reply | t

Ask | Quick check: IC50 of CC(C)(O)c1cc2nn(CCS(=N)(=O)c3ncnc4ccccc34)cc2cc1NC(=O)c1cccc(C(F)(F)F)n1 (stereo not drawn) under 600 pM?
Reply | t

Ask | Quick check: IC50 of N=S(=O)(CCn1cc2cc(NC(=O)c3cccc(C(F)(F)F)n3)c(N3CCOCC3)cc2n1)c1ccncc1 (stereo not drawn) under 600 pM?
Reply | t
